# target system: Epidermal growth factor receptor (Homo sapiens) (UniProt P00533)
# Sequence (P00533 whole entry, looked up): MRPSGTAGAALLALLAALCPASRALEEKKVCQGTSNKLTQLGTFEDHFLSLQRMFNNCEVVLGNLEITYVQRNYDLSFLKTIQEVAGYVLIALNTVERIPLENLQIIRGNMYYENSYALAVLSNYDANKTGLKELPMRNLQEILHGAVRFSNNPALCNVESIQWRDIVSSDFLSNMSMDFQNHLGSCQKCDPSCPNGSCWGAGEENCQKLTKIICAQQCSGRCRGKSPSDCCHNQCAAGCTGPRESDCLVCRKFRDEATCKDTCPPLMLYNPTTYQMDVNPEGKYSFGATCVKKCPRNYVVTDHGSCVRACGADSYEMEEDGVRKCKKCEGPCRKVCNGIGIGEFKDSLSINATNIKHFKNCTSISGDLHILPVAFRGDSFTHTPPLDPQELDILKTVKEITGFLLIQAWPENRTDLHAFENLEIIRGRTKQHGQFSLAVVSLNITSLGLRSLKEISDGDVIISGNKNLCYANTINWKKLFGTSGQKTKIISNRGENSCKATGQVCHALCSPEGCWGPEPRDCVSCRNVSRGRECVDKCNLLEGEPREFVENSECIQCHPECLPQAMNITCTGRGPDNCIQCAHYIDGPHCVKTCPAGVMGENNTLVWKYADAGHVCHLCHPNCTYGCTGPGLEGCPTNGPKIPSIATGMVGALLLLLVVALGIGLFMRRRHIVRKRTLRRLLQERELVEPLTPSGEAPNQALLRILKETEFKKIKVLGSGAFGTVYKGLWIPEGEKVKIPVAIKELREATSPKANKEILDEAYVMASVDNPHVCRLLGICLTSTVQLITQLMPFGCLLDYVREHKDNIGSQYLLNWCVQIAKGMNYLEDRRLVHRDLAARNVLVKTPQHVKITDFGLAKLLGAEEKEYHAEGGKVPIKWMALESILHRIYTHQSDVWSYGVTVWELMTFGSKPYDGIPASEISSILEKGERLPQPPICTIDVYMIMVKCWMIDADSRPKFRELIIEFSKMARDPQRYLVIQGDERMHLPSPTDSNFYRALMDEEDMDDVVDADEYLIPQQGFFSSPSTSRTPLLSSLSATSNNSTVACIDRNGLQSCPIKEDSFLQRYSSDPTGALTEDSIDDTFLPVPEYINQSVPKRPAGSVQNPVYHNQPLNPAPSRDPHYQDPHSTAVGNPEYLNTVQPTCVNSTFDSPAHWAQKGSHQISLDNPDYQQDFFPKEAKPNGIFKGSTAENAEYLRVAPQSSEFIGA
# procedure text: compounds binding epidermal growth factor receptor – biochemical, small-molecule microarray, 635 nm fluorescence, primary screen (AID 1104);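 also: score merges 667 nm emission intensity with spot signal to noise over triplicate slides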
# condition summary: EGFR binding, higher = more signal
quantity kind: composite z-score

C=C(CCCC)/C(=C/C[C@H](OC(C)=O)c1cccc(OCCO)c1)c1cnc2ccccc2c1    0.228
CC(C)C(=C=CC[C@H](O)c1ccccc1OCCO)C[C@H](O)COCc1ccccc1    -0.593

Q: Let me know recorded composite z-score for COC(=O)[C@@]1(Cc2ccc(OC)cc2)[C@H]2c3cc(C(=O)N4CCCC4)n(Cc4ccc(C(F)(F)F)nc4)c3C[C@H]2CN1C(=O)c1ccccc1 , thanks.
A: 0.282

---

# procedure text: growth effects on S. cerevisiae YJM789 – YJM789 clinical isolate, OD600, 24 h, basal, primary screen (AID 1089);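 also: growth of clinical yeast isolate S. cerevisiae YJM 789 seeded 1000 cells per well; test concentration not given here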
# condition summary: higher = more signal, called active from +8 up or from −8 down
Output Criterion met for z-score not less than -0.09; output Criterion not met otherwise.

Some solved entries appear below for comparison.
N#Cc1ccc(-c2cccc(=O)o2)cc1    Criterion not met
CN1C(=O)[C@@H]2[C@@H](CC(COc3ccccc3)=C3[C@@H](CCc4ccccc4)OB(O)C[C@@H]32)C1=O    Criterion not met
O=C(NCC(O)CO)[C@@]1(CCS(=O)(=O)c2ccccc2)N=C(c2ccc(OCCCO)cc2)O[C@H]1c1ccccc1 (stereo partly specified)    Criterion not met
CN(C)C(=O)[C@]1(Cc2ccccc2)N=C(c2ccc(OCCCO)cc2)O[C@@H]1c1ccccc1CN=[N+]=[N-]    Criterion not met
C=CCC(OC(C)=O)[C@@H]1[C@@H](N(Cc2cccc3ccccc23)C(=O)c2ccc(-c3ccccc3)cc2)c2cc(OCCCO)ccc2N1C(=O)Cc1ccc2ccccc2c1 (stereo partly specified)    Criterion not met

Q: Check the entry CC(C)(C)N1CC=CC23O[C@@H]4/C=C\CCCOC(=O)C4[C@H]2C(=O)N(CCCCCO)[C@@H]3C1=O (stereo partly specified) : does z-score equal or exceed -0.09?
A: Criterion not met

Q: Check the entry O=C1O[C@@H](c2ccccc2)[C@@H](c2ccccc2)N2[C@@H](c3ccc(OCCO)cc3)[C@]3(C(=O)Nc4ccc(C#CC5(O)CCCCCC5)cc43)[C@@H](C(=O)O)[C@H]12 : does z-score equal or exceed -0.09?
A: Criterion met

Q: Check the entry COC(=O)c1cccc([C@H]2OC(=CC(=O)OC(C)C)C[C@@H](c3cccc(C(=O)OC)c3)O2)c1 : does z-score equal or exceed -0.09?
A: Criterion not met

Q: Check the entry COc1ccc(C#Cc2ccc3c(c2)[C@]2(C(=O)N3)[C@H](C(=O)O)[C@H]3C(=O)O[C@H](c4ccccc4)[C@H](c4ccccc4)N3[C@@H]2c2ccccc2OCCO)cc1 : does z-score equal or exceed -0.09?
A: Criterion met

Q: Check the entry COCCCNC(=O)[C@@H]1c2ccccc2C(=O)N(Cc2ccc(OC(F)(F)F)cc2)[C@H]1c1ccc(CO)cc1 : does z-score equal or exceed -0.09?
A: Criterion not met

---

# target system: Fibroblast growth factor 10 (Homo sapiens) (UniProt O15520)
# Sequence (O15520 whole entry, looked up): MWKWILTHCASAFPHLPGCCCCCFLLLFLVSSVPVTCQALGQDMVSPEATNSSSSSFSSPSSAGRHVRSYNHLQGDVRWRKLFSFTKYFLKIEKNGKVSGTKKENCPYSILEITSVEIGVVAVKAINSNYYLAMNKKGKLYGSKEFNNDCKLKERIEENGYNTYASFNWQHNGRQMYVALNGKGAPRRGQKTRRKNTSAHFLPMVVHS
# procedure text: compounds binding fibroblast growth factor 10 – biochemical, small-molecule microarray, 635 nm fluorescence, primary screen (AID 1102)
# condition summary: FGF10 binding, fluorescence 635 nm, higher = more signal
The molecules listed here are annotated with their composite z-score.
Could you respond with only the numeric value?

Some entries whose results are on file:
COCCOC(=O)N1C(=O)[C@@]2(c3cc(C#CCC(C(=O)OC)C(=O)OC)ccc31)[C@H](C(=O)Nc1nc3ccccc3s1)[C@H]1C(=O)O[C@H](c3ccccc3)[C@H](c3ccccc3)N1[C@@H]2c1ccc(O)cc1    1.34
COC(=O)C[C@H]1O[C@@]2(C[C@@H]1[Si](C)(C)C)C(=O)N(C)c1ccccc12    0.955

Now for the molecule whose composite z-score we want.
Q: Let me know recorded composite z-score for CCCCCC1=C2CNC(CC(C)C)(C(=O)OC)C=C2C(C)C1=O (stereo not drawn) , thanks.
A: 0.071

---

The molecules listed here are annotated with their composite z-score.
# target system: Follistatin (Homo sapiens)
# procedure text: FST protein binding to printed compounds – biochemical, small-molecule microarray, 635/667 nm fluorescence, primary screen (AID 1132)
# condition summary: 635 nm fluorescence, higher = more signal

COc1ccc(CCNC(=O)[C@@H]2c3ccccc3C(=O)N(Cc3ccccc3OC)[C@H]2c2ccc(CO)cc2)cc1    0.674
C=CCN1Cc2ccccc2[C@H]2OC(c3ccc(OCCCO)cc3)=N[C@@]2(CCS(=O)(=O)c2ccccc2)C1=O    1.37
CCCC[C@H]1C[C@@H]1[C@@H]1N(C(C)=O)[C@H](c2cccc(OC)c2)CC12CC2    -0.631
O=C(NC1CC1)[C@@H]1c2ccccc2C(=O)N(CC23CC4CC(CC(C4)C2)C3)[C@H]1c1ccc(CO)cc1    1.44

Now for the molecule whose composite z-score we want.
Q: Let me know recorded composite z-score for CC(C)(C)N1CC=CC23O[C@@H]4/C=C\CCCOC(=O)C4[C@H]2C(=O)N(CCCO)[C@@H]3C1=O (stereo not given in full) , thanks.
A: -0.768

---

# target system: Calmodulin-1 (Homo sapiens) (UniProt P0DP23)
# procedure text: small molecules binding calmodulin-1 with EGTA – biochemical, small-molecule microarray, Cy5-labelled CALM1, profiling panel (AID 1111);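 also: labelled calmodulin applied in Tris saline Tween buffer holding calcium plus EGTA and DTT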
# condition summary: Cy5-CALM1 binding fluorescence, higher = more signal
quantity kind: composite z-score

Some entries whose results are on file:
O=C1[C@H]2C=C(I)[C@H](C[C@@H]2c2ccccc2)[C@@]12CO2    -0.68
C[N+](C)(C)CCCC[C@@H]1NC(=O)[C@H]2C[C@@H](C(=O)NCCCCCNC(=O)CS)[C@@H](c3cccc(OCCO)c3)N2C1=O    -0.0728
C=CCC(OC(C)=O)[C@@H]1[C@@H](N(Cc2cccc3ccccc23)C(=O)Cc2ccc(OC)cc2)c2cc(OCCCO)ccc2N1C(=O)Cc1ccc2ccccc2c1 (stereo not given in full)    0.0895
[N-]=[N+]=NCc1ccccc1[C@@H]1OC(c2ccc(OCCCO)cc2)=N[C@]1(Cc1ccccc1N=[N+]=[N-])C(=O)NCC(O)CO (stereo not given in full)    2.58

Q: Let me know recorded composite z-score for CC(C)N1C(=O)C[C@@](C(=O)NCCN2CCOCC2)(c2ccc([N+](=O)[O-])cc2)[C@H]1c1ccc(CO)cc1 , thanks.
A: -0.701

Q: Let me know recorded composite z-score for CCC(CC)C(O)C1C=CC2C(=O)N(c3ccccc3)C(=O)C2N1Nc1ccccc1F (stereo not given) , thanks.
A: 0.189

Q: Let me know recorded composite z-score for C[N+](C)(C)CCCCNC(=O)[C@H]1C[C@H]2C(=O)N[C@@H](Cc3ccccc3)C(=O)N2[C@H]1c1cccc(OCCO)c1 , thanks.
A: -1.14

Q: Let me know recorded composite z-score for CN(C)C(=O)[C@@]1(Cc2ccccc2CN=[N+]=[N-])COC(c2ccc(OCCCO)cc2)=N1 , thanks.
A: 0.809

---

# procedure text: JC-1 mitochondrial signal, unstimulated myeloma cells – cell-based, JC-1 fluorescence, RPMI8226, 24 h, 100 nL compound, profiling panel (AID 1169); also: test concentration not given here
# condition summary: JC-1 mitochondrial potential fluorescence, higher = more signal
quantity kind: z-score
Could you respond with only the numeric value?

Some entries whose results are on file:
C=C(COC)/C(=C/C[C@H](OC(C)=O)c1ccccc1OCCO)c1cc(C(=O)OC)ccc1OC    0.0983
CN(C)CCCCNC(=O)[C@H]1C[C@H]2C(=O)N3CCC[C@H]3C(=O)N2[C@H]1c1cccc(OCCO)c1    0.712
O=C(O)[C@H](Cc1ccccc1)n1cc(C2(O)CCCCC2)nn1    0.791
CC(C)N1C(=O)c2ccccc2[C@@H](C(=O)NCC(F)(F)F)[C@@H]1c1ccc(CO)cc1    -0.00189

Q: Let me know recorded z-score for COCCOC(=O)N1C(=O)[C@@]2(c3cc(C#CCC(C(=O)OC)C(=O)OC)ccc31)[C@H](C(=O)Nc1nc3ccccc3s1)[C@H]1C(=O)O[C@H](c3ccccc3)[C@H](c3ccccc3)N1[C@@H]2c1ccc(O)cc1 , thanks.
A: 0.467

Q: Let me know recorded z-score for C=C(/C(=C/C[C@@H](OC(C)=O)c1cccc(OCCO)c1)c1cnc2ccccc2c1)C(C)C , thanks.
A: -0.533

---

# target system: Torsin-1A (Homo sapiens) (UniProt O14656)
# Sequence (O14656 whole entry, looked up): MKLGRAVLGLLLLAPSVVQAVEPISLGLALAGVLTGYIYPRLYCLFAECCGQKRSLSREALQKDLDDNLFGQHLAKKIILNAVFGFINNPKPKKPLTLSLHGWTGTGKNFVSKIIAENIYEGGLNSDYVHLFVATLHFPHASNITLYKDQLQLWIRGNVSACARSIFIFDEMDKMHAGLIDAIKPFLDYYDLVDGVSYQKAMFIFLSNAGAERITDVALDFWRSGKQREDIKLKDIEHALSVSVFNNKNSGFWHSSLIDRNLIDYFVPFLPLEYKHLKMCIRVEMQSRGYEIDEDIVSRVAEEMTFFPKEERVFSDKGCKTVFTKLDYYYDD
# procedure text: TOR1A wild-type binding on microarray – cell lysate, small-molecule microarray, lysate, 635/667 nm, primary screen (AID 1149)
# condition summary: COS7 hTOR1A-WT lysate, 635 nm fluorescence, higher = more signal
The molecules listed here are annotated with their composite z-score.
Could you respond with only the numeric value?

Some entries whose results are on file:
O=C1O[C@H](c2ccccc2)[C@H](c2ccccc2)N2[C@H]1[C@@H](C(=O)O)[C@]1(C(=O)Nc3ccc(C#CCCO)cc31)[C@H]2c1ccc(OCCO)cc1    0.865
C=CCNC(=O)[C@H]1[C@@H]2C(=O)O[C@@H](c3ccccc3)[C@@H](c3ccccc3)N2[C@@H](c2ccc(OCCO)cc2)[C@]12C(=O)Nc1ccccc12    0.0646
CC(C)(C)N1CC=CC23O[C@@H]4C=CCCOC(=O)C4[C@H]2C(=O)N(CCCCCCO)[C@@H]3C1=O (some centres not stated)    -1.15
CCOC(=O)C[C@H]1[C@H](OC(=O)c2ccccc2-c2ccccc2)[C@@H](NC(=O)C2CCCCC2)c2cc(OCCCO)ccc2N1C(=O)c1ccc2ccccc2n1    0.237
CC(C)=CCCC(C)=CC(O)C1C=CC2C(=O)NC(=O)C2N1Nc1ccc(Cl)cc1Cl (configuration not stated)    -0.0743

Q: Let me know recorded composite z-score for COc1ccccc1CN1C(=O)c2ccccc2[C@](Cc2ccccc2I)(C(=O)NCC(C)C)[C@@H]1c1ccc(CO)cc1 , thanks.
A: -0.0986

Q: Let me know recorded composite z-score for Cc1ccc(S[C@]2(C(=O)NCc3ccccc3)CC(=O)N(Cc3ccccc3C(F)(F)F)[C@@H]2c2ccc(CO)cc2)cc1 , thanks.
A: -1.02

Q: Let me know recorded composite z-score for O=C(NCCN1CCOCC1)[C@@H]1c2ccccc2C(=O)N(Cc2ccc(OC(F)(F)F)cc2)[C@H]1c1ccc(CO)cc1 , thanks.
A: -0.282

Q: Let me know recorded composite z-score for CC(C)(C)OC(=O)CC[C@@]1(C(=O)NCCN2CCOCC2)N=C(c2ccc(OCCCO)cc2)O[C@@H]1c1ccccc1CN=[N+]=[N-] , thanks.
A: -0.428

Q: Let me know recorded composite z-score for COC(=O)C[C@H]1O[C@@]2(C[C@@H]1[Si](C)(C)C)C(=O)N(C)c1ccccc12 , thanks.
A: 0.185

Q: Let me know recorded composite z-score for COc1ccc(C(=O)Nc2cccc(CN3C(=O)[C@@]4(O[C@@H](CC(=O)N5CCC[C@H]5CO)[C@H]([Si](C)(C)c5ccc(OC)cc5)[C@H]4C)c4ccccc43)c2)cc1 , thanks.
A: 0.313

Q: Let me know recorded composite z-score for CC1CC/C=C\[C@H]2OC34C=CCN(Cn5nnc6ccccc65)C(=O)[C@H]3N(CCCCCCO)C(=O)[C@@H]4C2C(=O)O1 (some centres not stated) , thanks.
A: -1.51

Q: Let me know recorded composite z-score for C=CCC(OC(C)=O)[C@@H]1[C@@H](N(Cc2cccc3ccccc23)C(=O)c2ccc(-c3ccccc3)cc2)c2cc(OCCCO)ccc2N1C(=O)Cc1ccc2ccccc2c1 (some centres not stated) , thanks.
A: -0.175

Q: Let me know recorded composite z-score for COCCCNC(=O)[C@@]1(Sc2ccc(C)cc2)CC(=O)N(Cc2ccccc2C(F)(F)F)[C@@H]1c1ccc(CO)cc1I , thanks.
A: -1.5

Q: Let me know recorded composite z-score for CCOC(=O)c1cn(C[C@H](Cc2ccccc2)NC(=O)N[C@H](CO)CCc2oc(C(C)=O)c(C(=O)OC)c2C(=O)OC)nn1 , thanks.
A: 0.439

Q: Let me know recorded composite z-score for CN1C(=O)[C@@H]2[C@@H](CC(COc3ccccc3)=C3[C@@H](CCc4ccccc4)OB(O)C[C@@H]32)C1=O , thanks.
A: 0.179

Q: Let me know recorded composite z-score for C=CC[C@@]1(C(=O)N(C)C)N=C(c2ccc(OCCCO)cc2)O[C@@H]1c1ccccc1CN=[N+]=[N-] , thanks.
A: 0.886
